Item-by-item account of MIC
Tested on: S. aureus RN450
test-name: In Vitro Anti-Bacterial Activity Assay (MIC), gram positive
Format: cell-based
condition-parameters: Staphylococcus aureus, RN450, 18 h, gram positive bacteria; read-out: Antibiotic Activity Gram + (MIC)

C[C@H]1c2cccc(O)c2C(=O)C2=C(O)[C@]3(O)C(=O)C(C(N)=O)=C(O)[C@@H](N(C)C)[C@@H]3[C@@H](O)[C@@H]21 [drawing 3660]    < 4 µg/mL
CN(C)c1cc(CNCc2ccccc2F)c(O)c2c1C[C@H]1C[C@H]3[C@H](N(C)C)C(O)=C(C(N)=O)C(=O)[C@@]3(O)C(O)=C1C2=O    < 4 µg/mL
CCCCCCc1ccc(O)c2c1C[C@H]1C[C@H]3[C@H](N(C)C)C(O)=C(C(N)=O)C(=O)[C@@]3(O)C(O)=C1C2=O    < 4 µg/mL

**Q:** Form field: reported MIC of CN[C@@]12C(=O)C(C(N)=O)=C(O)[C@@H](N(C)C)[C@@H]1[C@@H](OC)[C@H]1C(=C2O)C(=O)c2c(O)cccc2[C@@H]1C
**A:** > 4 µg/mL

**Q:** Follow-up item: CCCN(C)Cc1cc(N(C)C)c2c(c1O)C(=O)C1=C(O)[C@]3(O)C(=O)C(C(N)=O)=C(O)[C@@H](N(C)C)[C@@H]3C[C@@H]1C2
**A:** < 4 µg/mL

**Q:** Here is the next molecule: CONCc1cc(CNCC(C)(C)C)c(O)c2c1C[C@H]1C[C@H]3[C@H](N(C)C)C(O)=C(C(N)=O)C(=O)[C@@]3(O)C(O)=C1C2=O
**A:** < 4 µg/mL

**Q:** Also need CN(C)[C@@H]1C(O)=C(C(N)=O)C(=O)[C@@]2(O)C(O)=C3C(=O)c4c(O)ccc(C5CCOC5)c4C[C@H]3C[C@@H]12 (stereo partly drawn) , thanks.
**A:** < 4 µg/mL

**Q:** Also CN(C)c1cc(NCc2ccc([N+](=O)[O-])o2)c(O)c2c1C[C@H]1C[C@H]3[C@H](N(C)C)C(O)=C(C(N)=O)C(=O)[C@@]3(O)C(O)=C1C2=O ?
**A:** < 4 µg/mL

**Q:** What do you have for CN1CCC(Nc2ccc(O)c3c2C[C@H]2C[C@H]4[C@H](N(C)C)C(O)=C(C(N)=O)C(=O)[C@@]4(O)C(O)=C2C3=O)CC1 ?
**A:** < 4 µg/mL

**Q:** Then this molecule: CC(CC(F)(F)F)N(C)Cc1cc(N(C)C)c2c(c1O)C(=O)C1=C(O)[C@]3(O)C(=O)C(C(N)=O)=C(O)[C@@H](N(C)C)[C@@H]3C[C@@H]1C2 (stereo partly drawn)
**A:** < 4 µg/mL

**Q:** Check CN(C)[C@@H]1C(O)=C(C(N)=O)C(=O)[C@@]2(O)C(O)=C3C(=O)c4c(O)ccc(-c5ccc(O)nc5)c4C[C@H]3C[C@@H]12 too.
**A:** < 4 µg/mL

**Q:** Next molecule: Cc1ccnc(-c2ccc(O)c3c2C[C@H]2C[C@H]4[C@H](N(C)C)C(O)=C(C(N)=O)C(=O)[C@@]4(O)C(O)=C2C3=O)c1
**A:** < 4 µg/mL

**Q:** What do we get for CN(C)[C@@H]1C(O)=C(C(N)=O)C(=O)[C@@]2(O)C(O)=C3C(=O)c4c(O)ccc(CNCc5ccc(F)cc5)c4C[C@H]3C[C@@H]12 ?
**A:** < 4 µg/mL

**Q:** How about C[C@H]1c2c(CN)cc(C(C)(C)C)c(O)c2C(=O)C2=C(O)[C@]3(O)C(=O)C(C(N)=O)=C(O)[C@@H](N(C)C)[C@@H]3[C@@H](O)[C@@H]21 ?
**A:** > 4 µg/mL

**Q:** # repeat for CN(C)[C@@H]1C(O)=C(C(N)=O)C(=O)[C@@]2(O)C(O)=C3C(=O)c4c(O)c(CN)cc(Cl)c4C=C3C[C@@H]12
**A:** > 4 µg/mL

**Q:** Next molecule up: CN(C)c1cc(CN)c(O)c2c1C[C@H]1C[C@H]3[C@H](N(C)C)C(O)=C(C(N)=O)C(=O)[C@@]3(O)C(O)=C1C2=O
**A:** < 4 µg/mL

**Q:** Please give the result for CN(C)c1cc(NCC2CCCCC2)c(O)c2c1C[C@H]1C[C@H]3[C@H](N(C)C)C(O)=C(C(N)=O)C(=O)[C@@]3(O)C(O)=C1C2=O too.
**A:** > 4 µg/mL

**Q:** And CN(C)[C@@H]1C(O)=C(C(N)=O)C(=O)[C@@]2(O)C(O)=C3C(=O)c4c(O)ccc(-c5ccc(CNC#N)cc5)c4C[C@H]3C[C@@H]12 ?
**A:** < 4 µg/mL

**Q:** How about COC(=O)c1ccc(CNCc2cc(N(C)C)c3c(c2O)C(=O)C2=C(O)[C@]4(O)C(=O)C(C(N)=O)=C(O)[C@@H](N(C)C)[C@@H]4C[C@@H]2C3)cc1 ?
**A:** < 4 µg/mL

**Q:** Also check NC(=O)C1=C(O)C[C@@H]2C[C@@H]3Cc4ccc(CN5CCCCC5)c(O)c4C(=O)C3=C(O)[C@]2(O)C1=O
**A:** > 4 µg/mL

**Q:** Param item: CN(C)c1cc(CNCC2CC2)c(O)c2c1C[C@H]1C[C@H]3[C@H](N(C)C)C(O)=C(C(N)=O)C(=O)[C@@]3(O)C(O)=C1C2=O
**A:** < 4 µg/mL

**Q:** How about CN1CCC(NCc2ccc3c(c2O)C(=O)C2=C(O)[C@]4(O)C(=O)C(C(N)=O)=C(O)[C@@H](N(C)C)[C@@H]4C[C@@H]2C3)CC1 ?
**A:** > 4 µg/mL

**Q:** Subsequent entry: CN(C)[C@@H]1C(O)=C(C(N)=O)C(=O)[C@@]2(O)C(O)=C3C(=O)c4c(O)ccc(-c5cncc(Br)c5)c4C[C@H]3C[C@@H]12
**A:** < 4 µg/mL

**Q:** Try this molecule too: CC1C(C(=O)[C@@H]2CC(=O)C(C(N)=O)=C(O)[C@H]2N(C)C)=C(C(=O)NCC(C)(C)C)C(=O)c2c(O)cccc21 (stereo partly drawn)
**A:** > 4 µg/mL
